assay: in vivo; conditions: single oral dose 200 Mg./Kg., mice
Structures can show the parent of a compound that is named as a salt.

- molecule: "COC(=O)Nc1cccc(C2CN3CCSC3=N2)c1 (stereo not shown) [m-NH-CO--OCH3 l, hydrochloride]"
  Dead/Total: "5/5"
- molecule: "CC(C)(C)C(=O)Nc1cccc(C2CN3CCSC3=N2)c1 (stereo not shown) [m-NH-CO-C(CH3)2 l]"
  Dead/Total: "6/6"
- molecule: "COC(=O)Nc1cccc(C2CN3CCSC3=N2)c1 (racemic) [m-NH-CO-OCH3 dl, hydrochloride]"
  Dead/Total: "5/5"
- molecule: "CC(C)(C)C(=O)Nc1cccc(C2CN3CCSC3=N2)c1 (racemic) [m-NH--CO--C(CH3)3 dl]"
  Dead/Total: "5/6"
